# viability at 20 h, 50 µM per record follows
Assay: Cell viability (MTT assay)
Type: cell-based, mouse
Conditions: mouse
Provide only the numeric value, understood in %.

Example compounds with recorded viability at 20 h, 50 µM:
[
  {
    "compound": "CC(=O)OC(C)(C)C1OC23OC1CC(C)C2C1(C)CCC2=C(CCC4C(=CCC(OC5OCC(O)C(O)C5O)C4(C)C)C2)C1(C)C3O (centres unmarked)",
    "viability at 20 h, 50 µM / %": 91
  },
  {
    "compound": "CC(C=CC1C(C)CC(O)CC1(C)C)=CC(=O)O (centres unmarked)",
    "viability at 20 h, 50 µM / %": 87
  },
  {
    "compound": "CC(=O)OC(C)(C)C1OC23OC1CC(C)C2C1(C)CC(=O)C2=C(C(O)CC4C5(CCC(O5)C4(C)C)C2)C1(C)C3O (stereo not drawn) [Compound 3, 25-O-acetyl-7β-hydroxy-11-oxoacerinol]",
    "viability at 20 h, 50 µM / %": 95
  }
]

Let's switch to this compound now.
Data request: Requested read-out: viability at 20 h, 50 µM. Entry: CC1CC2OC3(OC2C(C)(C)O)C1C1(C)CCC24CC25C=CC(=O)C(C)(C)C5CC=C4C1(C)C3O (centres unmarked)
Data returned: 89

Data provenance: paper PMC8912030
